Experiment: One electron reduction potential E
Format: physicochemical
Conditions: anaerobic aqueous solution, pH 7.0, pulse radiolysis
REPORTED PROPERTY: E(1) (mV)
Report the value in mV with no unit label.

Some entries whose results are on file:
Note to self: E(1) recorded for CN(C)CCNc1n[n+]([O-])c2cc3c(cc2[n+]1[O-])OCC3 was −545

Note to self: E(1) recorded for CCNc1n[n+]([O-])c2cc3c(cc2[n+]1[O-])CN(C)CC3 was −462

Turning now to a further compound:
Note to self: E(1) recorded for CN(C)CCNc1n[n+]([O-])c2c3c(ccc2[n+]1[O-])CCC3 was −480

###

Tested on: anoxic HT29 cell suspensions
Experiment: Rate constant for metabolic consumption kmet in anoxic single cell suspensions
Type: in vitro ADME
Conditions: scaled to the cell density in MCLs
Entries and their measured kmet (first order rate constant for metabolism) follow.
Report the value in min⁻¹ with no unit label.

Some entries whose results are on file:
Note to self: kmet (first order rate constant for metabolism) recorded for [O-][n+]1nc(NCCCN2CCOCC2)[n+]([O-])c2ccc3c(c21)CCC3 was 0.20

Note to self: kmet (first order rate constant for metabolism) recorded for CN(C)CCNc1n[n+]([O-])c2c3c(ccc2[n+]1[O-])CCC3 was 0.74

Note to self: kmet (first order rate constant for metabolism) recorded for [O-][n+]1nc(NCCN2CCCCC2)[n+]([O-])c2cc3c(cc21)CCC3 was 1.25

***
Note to self: kmet (first order rate constant for metabolism) recorded for CCCN(CCC)CCNc1n[n+]([O-])c2c3c(ccc2[n+]1[O-])CCC3 was 0.73

Note to self: kmet (first order rate constant for metabolism) recorded for CN(C)CCNc1n[n+]([O-])c2c3c(ccc2[n+]1[O-])CCCC3 was 1.78

Note to self: kmet (first order rate constant for metabolism) recorded for [O-][n+]1nc(CCCN2CCOCC2)[n+]([O-])c2cc3c(cc21)CCO3 was 0.31

Note to self: kmet (first order rate constant for metabolism) recorded for CCc1n[n+]([O-])c2cc3c(cc2[n+]1[O-])CC(CCN1CCOCC1)C3 (stereo not shown) was 0.54

Note to self: kmet (first order rate constant for metabolism) recorded for [O-][n+]1nc(NCCCN2CCOCC2)[n+]([O-])c2cc3c(cc21)CCC3 was 0.19

###

System: anoxic HT29 cell suspensions
Assay: Rate constant for metabolic consumption kmet in anoxic single cell suspensions
Type: in vitro ADME
Conditions: scaled to the cell density in MCLs
REPORTED PROPERTY: kmet (first order rate constant for metabolism) (min⁻¹)
Report the value in min⁻¹ with no unit label.

Some entries whose results are on file:
Note to self: kmet (first order rate constant for metabolism) recorded for CCc1n[n+]([O-])c2cc3c(cc2[n+]1[O-])CC(CCO)C3 (centres unmarked) was 0.54

Note to self: kmet (first order rate constant for metabolism) recorded for CCN(CC)CCNc1n[n+]([O-])c2c3c(ccc2[n+]1[O-])CCC3 was 0.97

Note to self: kmet (first order rate constant for metabolism) recorded for CCN1Cc2cc3c(cc2C1)[n+]([O-])c(N)n[n+]3[O-] was 2.20

Note to self: kmet (first order rate constant for metabolism) recorded for CCN(CC)CCNc1n[n+]([O-])c2cc3c(cc2[n+]1[O-])CCC3 was 1.08

Note to self: kmet (first order rate constant for metabolism) recorded for Nc1n[n+]([O-])c2cc3c(cc2[n+]1[O-])CCC3 was 0.47

***
Note to self: kmet (first order rate constant for metabolism) recorded for CCN(CC)CCNc1n[n+]([O-])c2cc3c(cc2[n+]1[O-])OCC3 was 0.26

###

Test system: anoxic HT29 cell suspensions
Assay: Rate constant for metabolic consumption kmet in anoxic single cell suspensions
Assay type: in vitro ADME
Settings: scaled to the cell density in MCLs
REPORTED PROPERTY: kmet (first order rate constant for metabolism) (min⁻¹)
Report the value in min⁻¹ with no unit label.

Some entries whose results are on file:
Note to self: kmet (first order rate constant for metabolism) recorded for CC1Cc2cc3c(cc2C1)[n+]([O-])c(CCCO)n[n+]3[O-] (centres unmarked) was 0.24

Note to self: kmet (first order rate constant for metabolism) recorded for [O-][n+]1nc(CCCN2CCOCC2)[n+]([O-])c2cc3c(cc21)CC(CO)C3 (centres unmarked) was 0.90

Note to self: kmet (first order rate constant for metabolism) recorded for CC1Cc2cc3c(cc2C1)[n+]([O-])c(NCCN(C)C)n[n+]3[O-] (centres unmarked) was 1.49

Note to self: kmet (first order rate constant for metabolism) recorded for CN(C)CCNc1n[n+]([O-])c2cc3c(cc2[n+]1[O-])CCC3 was 0.44

Turning now to a further compound:
Note to self: kmet (first order rate constant for metabolism) recorded for CCc1n[n+]([O-])c2cc3c(cc2[n+]1[O-])CC(CO)C3 (centres unmarked) was 0.47
